List of Ki tested on Mu-type opioid receptor (Rattus norvegicus).
Sequence (P33535 whole entry): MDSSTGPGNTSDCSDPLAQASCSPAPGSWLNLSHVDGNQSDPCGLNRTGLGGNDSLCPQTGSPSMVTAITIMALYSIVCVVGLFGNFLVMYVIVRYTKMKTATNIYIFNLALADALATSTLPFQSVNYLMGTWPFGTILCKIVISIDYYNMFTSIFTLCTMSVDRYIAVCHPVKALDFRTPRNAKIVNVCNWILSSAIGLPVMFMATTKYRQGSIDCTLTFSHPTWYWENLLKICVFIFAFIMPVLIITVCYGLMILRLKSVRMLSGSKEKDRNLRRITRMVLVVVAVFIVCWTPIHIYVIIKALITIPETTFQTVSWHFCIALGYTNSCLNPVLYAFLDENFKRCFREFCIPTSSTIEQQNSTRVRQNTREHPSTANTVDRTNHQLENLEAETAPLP
Non-standard residues stand in square brackets, D forms with d. Residues, ends and D or L forms follow the SMILES beside them. AEA = NCCOCC(=O)O

>  <compound>
CC(C)C[C@H](NC(=O)[C@H](Cc1ccccc1)NC(=O)COCCNC(=O)[C@@H](N)Cc1ccc(O)cc1)C(N)=O (H-Y[AEA]FL-NH2)

>  <Ki>
1.38 µM

$$$$
>  <compound>
CC(C)C[C@H](NC(=O)[C@H](Cc1ccccc1)NC(=O)CNC(=O)COC[C@@H](N)Cc1ccc(O)cc1)C(N)=O

>  <Ki>
0.00369 µM

$$$$

###

species on record: Cavia porcellus; assay: Relative potency to that of [DAla2,Leu5]enkaphalinamide.; format: functional
Non-standard residues stand in square brackets, D forms with d. Residues, ends and D or L forms follow the SMILES beside them. AEA = NCCOCC(=O)O
metric: Relative potency (%)

>  <compound>
CC(C)C[C@H](NC(=O)[C@H](Cc1ccccc1)NC(=O)COCCNC(=O)[C@@H](N)Cc1ccc(O)cc1)C(N)=O (H-Y[AEA]FL-NH2)

>  <measure_unit>
%

>  <recorded_value>
0.014

$$$$
>  <compound>
CC(C)CC(NC(=O)[C@H](Cc1ccccc1)NC(=O)COC[C@@H](CO)NC(=O)C(N)Cc1ccc(O)cc1)C(=O)N[C@H](C(=O)O)[C@@H](C)O (some centres undefined)

>  <measure_unit>
%

>  <recorded_value>
0.09

$$$$
>  <compound>
CC(C)C[C@H](NC(=O)[C@H](Cc1ccccc1)NC(=O)COC[C@@H](C)NC(=O)[C@@H](N)Cc1ccc(O)cc1)C(N)=O

>  <measure_unit>
%

>  <recorded_value>
1

$$$$
>  <compound>
CC(C)C[C@H](NC(=O)[C@H](Cc1ccccc1)NC(=O)CNC(=O)COC[C@@H](N)Cc1ccc(O)cc1)C(N)=O

>  <measure_unit>
%

>  <recorded_value>
1.06

$$$$

###

experiment: Ratio of IC50 measured in MVD to that of GPI.; assay type: functional

>  <compound>
CC(C)CC(NC(=O)[C@H](Cc1ccccc1)NC(=O)COC[C@@H](CO)NC(=O)C(N)Cc1ccc(O)cc1)C(=O)N[C@H](C(=O)O)[C@@H](C)O (some centres undefined)

>  <Ratio>
0.0015

$$$$
>  <compound>
CC(C)C[C@H](NC(=O)[C@H](Cc1ccccc1)NC(=O)CNC(=O)COC[C@@H](N)Cc1ccc(O)cc1)C(N)=O

>  <Ratio>
3.12

$$$$
>  <compound>
CSCC[C@H](NC(=O)[C@H](Cc1ccccc1)NC(=O)CNC(=O)[C@@H](C)NC(=O)[C@@H](N)Cc1ccc(O)cc1)C(N)=O

>  <Ratio>
0.14

$$$$
>  <compound>
CC(C)C[C@H](NC(=O)[C@H](Cc1ccccc1)NC(=O)COC[C@@H](C)NC(=O)[C@@H](N)Cc1ccc(O)cc1)C(N)=O

>  <Ratio>
0.37

$$$$

###

species on record: Cavia porcellus; experiment: Effective dose was measured on guinea pig ileum for maximal contraction; format: functional
pEC50: −log10 of the molar value. Starred links: 1 amine or outer side, 2 acyl side, 3 side chain; linkers in the order of their positions; H or OH if unused. Non-standard residues stand in square brackets, D forms with d. Residues, ends and D or L forms follow the SMILES beside them. X1 = O=C(COC[C@H](Cc1ccccc1)N[*:1])[*:2]; NMeF = CN[C@@H](Cc1ccccc1)C(=O)O; pGlu = O=C1CC[C@@H](C(=O)O)N1

>  <compound>
CSCC[C@H](NC(=O)[C@H](CC(C)C)NC(=O)CNC(=O)[C@H](Cc1ccccc1)NC(=O)[C@H](Cc1ccccc1)NC(=O)[C@@H]1CCC(=O)N1)C(N)=O ([pGlu]FFGLM-NH2)

>  <pEC50>
8.92

$$$$
>  <compound>
CSCC[C@H](NC(=O)[C@H](CC(C)C)NC(=O)COC[C@H](Cc1ccccc1)NC(=O)[C@H](Cc1ccccc1)NC(=O)[C@@H]1CCC(=O)N1)C(N)=O ([pGlu]F[X1]LM-NH2)

>  <pEC50>
8.32

$$$$
>  <compound>
CSCC[C@H](NC(=O)[C@H](CC(C)C)NC(=O)CNC(=O)[C@H](Cc1ccccc1)N(C)C(=O)[C@H](Cc1ccccc1)NC(=O)[C@@H]1CCC(=O)N1)C(N)=O ([pGlu]F[NMeF]GLM-NH2)

>  <pEC50>
9.40

$$$$

###

Molecular target: Neuromedin-K receptor (Cavia porcellus, UniProt P30098)
Sequence (P30098 whole entry): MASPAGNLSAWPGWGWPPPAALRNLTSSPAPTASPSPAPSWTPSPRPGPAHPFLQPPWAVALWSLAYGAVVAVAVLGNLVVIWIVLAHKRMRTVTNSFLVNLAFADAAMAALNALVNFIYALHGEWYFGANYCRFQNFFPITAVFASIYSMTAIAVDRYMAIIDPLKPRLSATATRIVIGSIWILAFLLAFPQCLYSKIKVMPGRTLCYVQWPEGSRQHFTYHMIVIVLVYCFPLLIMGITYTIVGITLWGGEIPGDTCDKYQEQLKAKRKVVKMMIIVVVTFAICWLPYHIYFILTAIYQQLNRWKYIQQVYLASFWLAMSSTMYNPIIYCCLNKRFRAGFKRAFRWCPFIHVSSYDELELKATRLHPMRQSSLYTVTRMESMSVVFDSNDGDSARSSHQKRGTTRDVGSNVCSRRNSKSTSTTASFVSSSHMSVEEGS
Assay: Effective dose was measured on NK3 receptors of guinea pig ileum for maximal contraction in the presence of 10e-7 M substance P methyl ester
Type: functional, tissue-based
pEC50: −log10 of the molar value. Non-standard residues stand in square brackets, D forms with d. Residues, ends and D or L forms follow the SMILES beside them. pGlu = O=C1CC[C@@H](C(=O)O)N1

>  <molecule>
CSCC[C@H](NC(=O)[C@H](CC(C)C)NC(=O)CNC(=O)[C@H](Cc1ccccc1)NC(=O)[C@H](Cc1ccccc1)NC(=O)[C@@H]1CCC(=O)N1)C(N)=O ([pGlu]FFGLM-NH2)

>  <pEC50>
8.30

$$$$
